Substrate: BHET
settings: 120 h
metric.name: plate clearing

>>> measured_value("unnamed (protein) MERHNSRRRWGMGLGLLLLAASAHAQYQKGPDPTSASLNASSGPFSVATSSVSSLAAVGFGSGTIYYPTTAGSYAVLAICPGFTATESSIAWLGRRIATHGFVVITINTDSTLDQPPSRATQLMAALRHVTESSSATVRSRVDASRRGVAGHSMGGGGTLYAARDNPSLKAAVPLTAWSTTKTFSSMQVPTLVVGAENDSIASVNSHSIPFYNGLPGSLDKAYAELNGASHFAPNTTNTPIGRYSVAWVKRFMDEDTRYSPFLCGAPHQSYA")
"not clears the plate"
>>> measured_value("unnamed (protein) MPPHAARPGPAQNRRGRAMAVITPRRERSSLLSRALRFTAAAATALVTAVSLAAPAHAANPYERGPNPTDALLEARSGPFSVSEERASRFGADGFGGGTIYYPRENNTYGAVAISPGYTGTQASVAWLGERIASHGFVVITIDTNTTLDQPDSRARQLNAALDYMINDASSAVRSRIDSSRLAVMGHSMGGGGSLRLASQRPDLKAAIPLTPWHLNKNWSSVRVPTLIIGADLDTIAPVLTHARPFYNSLPTSISKAYLELDGATHFAPNIPNKIIGKYSVAWLKRFVDNDTRYTQFLCPGPRDGLFGEVEEYRSTCPF")
"not clears the plate"
